Test system: Trichomonas vaginalis
Test: imaging-based T. vaginalis viability assay
Assay type: cell-based
Settings: Trichomonas vaginalis, read-out: average EC50 against T. vaginalis
MEASURED_PARAMETER: pEC50
// field semantics: pEC50 = negative decimal log of concentration (mol/L)

Q. What pEC50 appears in the records for this compound with Trichomonas vaginalis? COC(=O)[C@@]12Oc3cc4c(c(O)c3C(=O)C1=C(O)CC[C@@H]2O)[C@@H]1C=C[C@@]2(C4)C(=O)c3cc(C)cc(O)c3C(O)=C2C1=O [compound 46, xanthoquinodin A1]
A. 5.52

###

System: NIH/3T3 mouse fibroblast cells
Experiment: mammalian cell cytotoxicity counter screen, NIH/3T3
Assay type: cell-based
Conditions: read-out: EC50 3T3 Mouse Fibroblast; NIH/3T3 cytotoxicity
MEASURED_PARAMETER: pEC50
The quantity pEC50 is defined as the negative base-10 logarithm of the molar concentration.

                                   compound                   tested_target  measured_parameter  measured_result
0  C/C=C/C=C/C1C(C)=CC2CC(C)CCC2C1(C)/C(O)=C1\C(=O)NC(CO)C1=O (centres unmarked)  NIH/3T3 mouse fibroblast cells               pEC50             4.46

Consider now this further compound.
Q. Fill in: pEC50 of "C/C=C/[C@@H]1C=C[C@@H]2C[C@H](C)CC[C@H]2[C@]1(C)/C(O)=C1/C(=O)N[C@@H](CO)C1=O" is ___
A. 4.52

The origin of these recorded values is paper PMC10782576.
